Below, each of the compounds is paired with its reported GELATION value.
- MEASUREMENT NOTES: Peptide hydrogel formation, vial-inverting method
- Type: physicochemical
- Design: key: 0: no hydrogel; 1: hydrogel
- CONDITIONS USED: peptide concentration 120 mM; vial-inverting method; 1 = hydrogel, 0 = no hydrogel
Where a SMILES comes first, the peptide text is derived from it.

| COMPOUND | GELATION |
| --- | --- |
| NC(=O)CC[C@H](NC(=O)[C@H](CCC(N)=O)NC(=O)[C@H](CCC(N)=O)NC(=O)[C@@H](N)CCC(N)=O)C(=O)O [QQQQ] (H-QQQQ-OH) | 0 |
| NCC(=O)NCC(=O)NCC(=O)NCC(=O)O [GGGG] (H-GGGG-OH) | 0 |
| C[C@H](NC(=O)[C@@H](N)CS)C(=O)N[C@@H](Cc1ccc(O)cc1)C(=O)N[C@@H](Cc1c[nH]c2ccccc12)C(=O)O [CAYW] (H-CAYW-OH) | 0 |
| N[C@@H](CO)C(=O)N[C@@H](CO)C(=O)N[C@@H](CO)C(=O)N[C@@H](CO)C(=O)O [SSSS] (H-SSSS-OH) | 0 |
| CC(C)[C@H](NC(=O)[C@H](Cc1c[nH]c2ccccc12)NC(=O)[C@@H](N)CCCNC(=N)N)C(=O)N[C@@H](Cc1ccccc1)C(=O)O [RWVF] (H-RWVF-OH) | 0 |
| CC(C)C[C@H](N)C(=O)NCC(=O)N[C@H](C(=O)N[C@@H](Cc1ccccc1)C(=O)O)C(C)C [LGVF] (H-LGVF-OH) | 0 |
| O=C(O)[C@H](CS)NC(=O)[C@H](Cc1c[nH]c2ccccc12)NC(=O)[C@H](Cc1c[nH]c2ccccc12)NC(=O)[C@@H]1CCCN1 [PWWC] (H-PWWC-OH) | 0 |
| CSCC[C@H](NC(=O)[C@H](Cc1c[nH]c2ccccc12)NC(=O)[C@@H](N)Cc1c[nH]c2ccccc12)C(=O)N[C@@H](Cc1ccccc1)C(=O)O [WWMF] (H-WWMF-OH) | 1 |
| CC(C)C[C@H](NC(=O)[C@@H](N)C(C)C)C(=O)N[C@H](C(=O)N[C@H](C(=O)O)C(C)C)C(C)C [VLVV] (H-VLVV-OH) | 1 |
| O=C(CNC(=O)[C@@H]1CCCN1)N[C@@H](Cc1c[nH]c2ccccc12)C(=O)N[C@@H](Cc1c[nH]c2ccccc12)C(=O)O [PGWW] (H-PGWW-OH) | 0 |
| CC(C)C[C@H](N)C(=O)N[C@@H](Cc1ccccc1)C(=O)N[C@@H](Cc1c[nH]c2ccccc12)C(=O)N[C@@H](CO)C(=O)O [LFWS] (H-LFWS-OH) | 1 |
| CC[C@H](C)[C@H](N)C(=O)N[C@H](C(=O)N[C@@H](Cc1ccccc1)C(=O)N[C@@H](Cc1c[nH]c2ccccc12)C(=O)O)C(C)C [IVFW] (H-IVFW-OH) | 1 |
| CSCC[C@H](NC(=O)[C@H](CCSC)NC(=O)[C@H](CCSC)NC(=O)[C@@H](N)CCSC)C(=O)O [MMMM] (H-MMMM-OH) | 1 |
| C[C@@H](O)[C@H](N)C(=O)N[C@@H](CCC(N)=O)C(=O)N[C@@H](Cc1ccccc1)C(=O)N[C@@H](CO)C(=O)O [TQFS] (H-TQFS-OH) | 0 |
| CC(C)C[C@H](NC(=O)[C@@H](NC(=O)[C@H](Cc1ccccc1)NC(=O)[C@@H](N)CCCCN)C(C)C)C(=O)O [KFVL] (H-KFVL-OH) | 0 |
